The measured values listed here are drawn from PubChem BioAssay (NCI).

Tested on: HS 578T breast
assay text: NCI-60 one-dose screen, 48 h
test context: 10 µM unless noted
Compounds without any hit were thinned out: in the full panel of roughly 83,000, 20% have a hit. Activity calls are given as the source filed them. Rule for the calls: active = growth percent below 10; inactive = the rest.
Outcomes: yes = active, no = inactive

{"compound": "COc1ccc(-c2cc(=O)c3c(OC)c4ccoc4c(/C=C/C=O)c3o2)cc1", "classification": "no"}
{"compound": "CC[C@]1(O)C[C@@H]2CN(CCc3c([nH]c4ccccc34)[C@@](C(=O)OC)(c3cc4c(cc3OC)N(C)[C@H]3[C@@](O)(C(=O)OC)[C@H](OC(=O)CCCBr)[C@]5(CC)C=CCN6CC[C@]43[C@@H]65)C2)C1", "classification": "yes"}
{"compound": "O=C(O)CCCN1C(=O)C2C3CCC(C3)C2C1=O (stereo unspecified)", "classification": "no"}
{"compound": "COc1ccc(CCN2C(=O)CCSC2=S)cc1", "classification": "no"}
{"compound": "O=S1(=O)CCN(Cc2ccccc2)CC1", "classification": "no"}
{"compound": "Cn1c2c(c(=O)[nH]c1=O)NC1=C(C(=O)c3ccccc31)C1(C=C(O)c3ccccc31)N2 (stereo unspecified)", "classification": "no"}

###

System: UACC-257 melanoma
assay text: NCI-60 one-dose screen, 48 h (100 = growth as untreated, 0 = no growth, -100 = all killed)
test context: 10 µM unless noted
This is part of a sample that, as a whole, favours compounds with a hit. Of some 83,000 tested, about 20% had one in any assay.
Using growth as the sorting value, the categories are low range: < 40%; mid range: ≥ 40% and < 90%; high range: ≥ 90%

{"compound": "O=C1/C(=C/c2cccc(O)c2)COc2ccc(O)cc21", "classification": "high range"}
{"compound": "O=c1oc2ccc(F)cc2c(=O)n1-c1ccc(I)cc1F", "classification": "low range"}
{"compound": "CCOC(=O)c1sc(-c2ccc(OS(=O)(=O)C[C@]34CCC(CC3=O)C4(C)C)c(C=O)c2)nc1C", "classification": "low range"}
{"compound": "Clc1ncccc1Nc1ccc2nnc(-c3ccncc3)n2n1", "classification": "high range"}
{"compound": "OC(CNC1CCCCC1)Cn1c2ccc(I)cc2c2cc(I)ccc21 (configuration not stated)", "classification": "mid range"}
{"compound": "CCCSC1=NC2C(N(CC)C(=O)N2CC)N1/N=C/C=C/c1ccccc1[N+](=O)[O-] (configuration not stated)", "classification": "mid range"}
{"compound": "CN(C)/C=C1\\SC(=Nc2ccc(Cl)cc2)NC1=O", "classification": "high range"}
{"compound": "O=C(NC1CCN(Cc2ccccc2)CC1)c1cc2nc(-c3ccc(Cl)s3)cc(C(F)(F)F)n2n1", "classification": "low range"}
{"compound": "O=C(Nc1ccccc1O)c1ccc(-c2ccc(Cl)cc2Cl)o1", "classification": "high range"}
{"compound": "COc1cc(/C=C/C(=O)c2ccc(Nc3nc(NCCO)nc(N4CCOCC4)n3)cc2)cc(OC)c1OC", "classification": "mid range"}
{"compound": "CCOC(=O)c1cc2c(n1Cc1cccc(OC)c1)-c1oncc1CCC2", "classification": "mid range"}
{"compound": "COC(=O)[C@@H]1CCCN1C(=O)[C@H]1CCCN1C(=O)[C@@H](Cc1c[nH]c2ccccc12)NC(=S)Nc1cc(C(F)(F)F)cc(C(F)(F)F)c1", "classification": "mid range"}
{"compound": "O=c1oc2ccc(Br)cc2c(=O)n1-c1ccc(I)cc1F", "classification": "low range"}
{"compound": "COc1ccc2[nH]c(O)c(N=NC(=O)c3oc4ccccc4c3C)c2c1", "classification": "mid range"}
{"compound": "COc1ccc(/C=c2\\sc3n(c2=O)NC2C(N=3)N(C)C(=O)N2C)cc1 (configuration not stated)", "classification": "high range"}
{"compound": "O=C(Nc1ccc(I)cc1F)c1cc(F)ccc1O", "classification": "low range"}

###

System: NCI/ADR-RES ovarian
assay text: NCI-60 one-dose screen, 48 h
test context: 10 µM unless noted
This is part of a sample that, as a whole, favours compounds with a hit. Of some 83,000 tested, about 20% had one in any assay. Calls of active or inactive are those of the source. How the source made its calls: active means growth percent below 10; inactive means the rest.
Outcomes: active, inactive

{"molecule": "CCOC(=O)C1(Cc2ccccc2)CCN(Cc2cccc(OC)c2O)CC1", "test target": "NCI/ADR-RES ovarian", "classification": "active"}
{"molecule": "O=C(c1ccccc1)N(CCc1ccc(Cl)cc1)C(=S)N(C(=O)c1ccccc1)c1ccccc1", "test target": "NCI/ADR-RES ovarian", "classification": "inactive"}
{"molecule": "COc1ccc(C(=O)Nc2ccc3nc(N4CCCCC4)cc(C)c3c2)cc1OC", "test target": "NCI/ADR-RES ovarian", "classification": "inactive"}
{"molecule": "O=c1c2cc(F)ccc2sc2c(NCCCNCCO)nc3ccc(Cl)cc3c12", "test target": "NCI/ADR-RES ovarian", "classification": "inactive"}
{"molecule": "Cc1cccc2c(=O)c3c(sc12)c(NCCN)nc1ccccc13", "test target": "NCI/ADR-RES ovarian", "classification": "active"}
{"molecule": "COc1cc(C#N)cc2[nH]c(=O)oc12", "test target": "NCI/ADR-RES ovarian", "classification": "inactive"}
{"molecule": "C1CCN(c2nc(N3CCCCC3)nc(N3CCOCC3)n2)CC1", "test target": "NCI/ADR-RES ovarian", "classification": "inactive"}
{"molecule": "CCn1c(SCC(=O)Nc2cc(C(F)(F)F)ccc2Cl)nc2ccccc2c1=O", "test target": "NCI/ADR-RES ovarian", "classification": "inactive"}
{"molecule": "COc1ccc(OC)c(N(CCN2C(=O)c3ccccc3C2=O)C(=O)CCl)c1", "test target": "NCI/ADR-RES ovarian", "classification": "inactive"}
{"molecule": "Cc1c(-c2noc(-c3ccc([N+](=O)[O-])cc3)n2)no[n+]1[O-]", "test target": "NCI/ADR-RES ovarian", "classification": "inactive"}
{"molecule": "O=C(O)c1cn(C2CC2)c2cc(N3CCN(C(=O)C[n+]4ccccc4)CC3)c(F)cc2c1=O", "test target": "NCI/ADR-RES ovarian", "classification": "inactive"}
{"molecule": "COC(=O)c1c2c(c(C)[n+]([O-])c1C)C(=O)C=C(NCc1ccccc1)C2=O", "test target": "NCI/ADR-RES ovarian", "classification": "active"}
{"molecule": "O=c1oc2ccc(I)cc2c(=O)n1-c1ccc(F)cc1F", "test target": "NCI/ADR-RES ovarian", "classification": "active"}
{"molecule": "COc1ccc(CCN2CCC(CN(C)Cc3cnn(-c4ccccc4)c3)CC2)cc1", "test target": "NCI/ADR-RES ovarian", "classification": "inactive"}
{"molecule": "CCC(C)(C)C(=O)O[C@H]1C[C@@H](C)C=C2C=C[C@H](C)[C@H](CC[C@@H]3CC=CC(=O)O3)[C@H]21", "test target": "NCI/ADR-RES ovarian", "classification": "inactive"}
{"molecule": "O=c1c(-c2nc3ccccc3[nH]2)cc2ccccc2n1Cc1cn(Cc2ccccc2Cl)nn1", "test target": "NCI/ADR-RES ovarian", "classification": "inactive"}
{"molecule": "COc1cc(C2C(C#N)=C(N)OC3=C2C(=O)c2ccccc2C3=O)cc(OC)c1OC (configuration not stated)", "test target": "NCI/ADR-RES ovarian", "classification": "inactive"}
{"molecule": "COC(=O)C1(C)CCC[C@]2(C)[C@H]3C[C@H]4C(C(C)C)=C[C@]3(CC[C@@H]12)[C@H]1[C@@H]4[C@@H](OCC#CCN2CCOCC2)CC[C@@H]1OCC#CCN1CCOCC1 (some centres not stated)", "test target": "NCI/ADR-RES ovarian", "classification": "inactive"}
{"molecule": "COc1ccc(C)c2sc(N(Cc3cccnc3)C(=O)c3ccc(C#N)cc3)nc12", "test target": "NCI/ADR-RES ovarian", "classification": "active"}
{"molecule": "Cc1cccc(NC(=O)c2sc3nc4c(cc3c2N)CCCC4)c1C", "test target": "NCI/ADR-RES ovarian", "classification": "active"}
{"molecule": "O=c1oc2ccc(F)cc2c(=O)n1-c1ccc(I)cc1F", "test target": "NCI/ADR-RES ovarian", "classification": "active"}
{"molecule": "O=C(Nc1ccc(Cl)cc1)N1CCN(c2ccc3nncn3n2)CC1", "test target": "NCI/ADR-RES ovarian", "classification": "inactive"}
{"molecule": "CN(C)/C=C1\\SC(=Nc2ccc(Cl)cc2)NC1=O", "test target": "NCI/ADR-RES ovarian", "classification": "inactive"}
{"molecule": "OCCNc1nc(Nc2ccc(C3=NN(c4cc(Cl)cc(Cl)c4)C(c4ccc(C(F)(F)F)cc4)C3)cc2)nc(N2CCOCC2)n1 (configuration not stated)", "test target": "NCI/ADR-RES ovarian", "classification": "inactive"}
{"molecule": "O=C(CCc1nnc2sc(-c3ccc(Cl)cc3Cl)nn12)c1nc2ncccc2[nH]1", "test target": "NCI/ADR-RES ovarian", "classification": "active"}
{"molecule": "Clc1ccc(COc2ccc(Nc3ncnc4onc(-c5ccccc5)c34)cc2)cc1", "test target": "NCI/ADR-RES ovarian", "classification": "inactive"}
{"molecule": "CN1CCN(Cc2ccc(C(=O)Nc3cncc(C#Cc4cnc(N)c5ccccc45)c3)cc2C(F)(F)F)CC1", "test target": "NCI/ADR-RES ovarian", "classification": "active"}
{"molecule": "O=S1(=O)CCN(Cc2ccccc2)CC1", "test target": "NCI/ADR-RES ovarian", "classification": "inactive"}
{"molecule": "CCN(CC)CCCNc1ccnc2cc3ccccc3cc12", "test target": "NCI/ADR-RES ovarian", "classification": "inactive"}
{"molecule": "COc1ccc2sc(N(Cc3cccnc3)C(=O)c3ccc(C#N)cc3)nc2c1", "test target": "NCI/ADR-RES ovarian", "classification": "inactive"}
{"molecule": "COc1ccc(-c2nsc3c2NC(=O)CC3c2ccc3c(c2)OCCO3)cc1 (configuration not stated)", "test target": "NCI/ADR-RES ovarian", "classification": "inactive"}
{"molecule": "Cn1c2c(c(=O)[nH]c1=O)NC1=C(C(=O)c3ccccc31)C1(C=C(O)c3ccccc31)N2 (configuration not stated)", "test target": "NCI/ADR-RES ovarian", "classification": "inactive"}
{"molecule": "O=C(NN1C(=O)CSC1c1ccc(Cl)cc1)c1[nH]c2ccc(F)cc2c1-c1ccccc1 (configuration not stated)", "test target": "NCI/ADR-RES ovarian", "classification": "inactive"}
{"molecule": "c1ccc(CNc2nc(Nc3ccccc3)nc3ccccc23)cc1", "test target": "NCI/ADR-RES ovarian", "classification": "inactive"}
{"molecule": "CCOC(=O)C1(C(=O)OCC)N=C(c2ccccc2)C=C1c1ccccc1", "test target": "NCI/ADR-RES ovarian", "classification": "inactive"}
{"molecule": "Cc1cc(Br)c(N)c(Br)c1", "test target": "NCI/ADR-RES ovarian", "classification": "inactive"}
{"molecule": "COc1ccc(C2C3=C(COC3=O)N(CCO)c3cc4c(cc32)CCC4)cc1OC (configuration not stated)", "test target": "NCI/ADR-RES ovarian", "classification": "inactive"}
